Exercise: state measured viability at 28.5 h, 10 µM for each of the compounds provided.
- assay: in vitro
- measurement.setup: human, hela cells, % viability
Give bare numbers, in %.

These recorded examples may help you get a feel for the data.
{"columns": ["compound", "viability at 28.5 h, 10 µM (%)"],
 "data": [
  ["COc1ccc(Cl)cc1N1CCN(Cc2ccc(OC(F)(F)F)cc2)CC1 [CBK126405]", 104],
  ["O=C(Cc1ccccc1)Nc1ncc(Cc2ccccc2)s1 [CBK287322]", 95.6],
  ["C=CCn1c(Cc2csc(NC(=O)c3cc(C)cc(C)c3)n2)n[nH]c1=S [CBK295358]", 77],
  ["COCCOCCCC(=O)OCC1Cc2cc(F)ccc2O1 (stereo not drawn) [CBK304886]", 91.2],
  ["O=C1C(c2ccccc2)=C(c2ccccc2)C(c2ccc(C3=C(c4ccccc4)C(=O)C(c4ccccc4)=C3c3ccccc3)cc2)=C1c1ccccc1 [CBK261220]", 87.4]
]}

Please give viability at 28.5 h, 10 µM, item by item, for the list that follows.
1. Cc1cc(NC(=O)CCn2cc(Br)cn2)no1 [CBK304326]
2. CNC(=S)NCc1ccncc1 [CBK020033]
3. COC(=O)[C@H]1CN(C(=O)c2ccccn2)C[C@@H]1c1ccc(F)cc1 [CBK283727]

[102, 106, 101]

For the compound CS(=O)(=O)N1CCC(c2nc(-c3ccc(C(F)(F)F)cc3)c3ccccn23)CC1 [CBK036006] , give its reported viability at 28.5 h, 10 µM.
86.4

Provenance of the data: paper PMC12040169
